# study-target: UniProtKB O43570
# Sequence (O43570 25-354): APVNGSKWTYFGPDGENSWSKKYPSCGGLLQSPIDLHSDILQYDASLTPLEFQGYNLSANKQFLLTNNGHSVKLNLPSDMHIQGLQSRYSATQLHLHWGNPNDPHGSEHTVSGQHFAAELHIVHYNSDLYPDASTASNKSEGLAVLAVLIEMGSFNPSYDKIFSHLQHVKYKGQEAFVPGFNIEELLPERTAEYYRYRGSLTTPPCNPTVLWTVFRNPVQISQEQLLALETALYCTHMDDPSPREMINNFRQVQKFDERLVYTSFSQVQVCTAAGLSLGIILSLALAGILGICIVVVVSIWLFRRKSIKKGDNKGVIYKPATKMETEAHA
pKi: −log10 of the molar value.
measurement-name: pKi

Look over these answered cases.
Report pKi for NS(=O)(=O)c1ccc(-n2c(-c3ccccc3)nc(-c3ccccc3)c2-c2ccccc2)cc1 [Compound 5a] please.
5.26

Report pKi for NS(=O)(=O)c1ccc(-n2c(-c3ccc(O)cc3)nc(-c3ccccc3)c2-c2ccccc2)cc1 [Compound 5f] please.
5.15

a: CCOC(=O)c1ccc(-c2nc(-c3ccccc3)c(-c3ccccc3)n2-c2ccc(S(N)(=O)=O)cc2)cc1 [Compound 5m]
b: COc1ccc(-c2nc(-c3ccccc3)c(-c3ccccc3)n2-c2ccc(S(N)(=O)=O)cc2)cc1 [Compound 5h]
When their pKi values are compared, which is larger, a or b ? Response format: the label of the selected entry.
b
